Test system: HEK-293T
ASSAY_EXPLANATION: Multiplex assay against HEK293T
Format: toxicity, cell-based
CONDITION_NOTES: human, 48 h, 1 µM, compound concentration 1 uM, replicate 1
RECORDED_METRIC: Total Cell Count
The response must contain the number and no unit.

In [3]: df
Out[3]:
                                   compound  observed
0  O=S(=O)(c1ccccc1)c1cnc2c(N3CCNCC3)cccc2c1 [INTEPIRDINE]       866
1  Cc1ccc(F)cc1C(=O)Nc1ccc(C(=O)N2Cc3cccn3Cc3ccccc32)c(Cl)c1       995
2  COc1cc(C(=O)N(CCCc2ccccc2)Cc2ccc(CC(=O)O)cc2)cc(OC)c1C       812

I'd like to know its Total Cell Count. The compound in question is `CCCC(CCC)C(=O)O`
1112
